Values compiled from patent US20240165089A1.

System: form deprivation myopia (FDM) guinea pig model
Experiment: FDM guinea pig model, systemic (gavage) administration
Format: in vivo
Conditions: FDM, vinpocetine 50 mg/kg/d gavage, 2 weeks
measured-quantity: body weight
Express the reported value numerically, then name its unit.

Entry CCOC(=O)C1=C[C@]2(CC)CCCN3CCc4c(n1c1ccccc41)[C@@H]32 [vinpocetine] has what body weight?
210 g

###

System: form deprivation myopia (FDM) guinea pig model
Assay: FDM guinea pig model, systemic (gavage) administration
Assay type: in vivo
Details: FDM, vinpocetine 50 mg/kg/d gavage, 1 week
measured-quantity: body weight
Express the reported value numerically, then name its unit.

Entry `CCOC(=O)C1=C[C@]2(CC)CCCN3CCc4c(n1c1ccccc41)[C@@H]32` has what body weight?
188 g
